Assay: self-splicing fitness, log relative to wild type (ln ratio); higher = more splicing; Tetrahymena group I intron in knt gene, E. coli kanamycin selection, DiMSum; sequences stand for … in CUCUCU…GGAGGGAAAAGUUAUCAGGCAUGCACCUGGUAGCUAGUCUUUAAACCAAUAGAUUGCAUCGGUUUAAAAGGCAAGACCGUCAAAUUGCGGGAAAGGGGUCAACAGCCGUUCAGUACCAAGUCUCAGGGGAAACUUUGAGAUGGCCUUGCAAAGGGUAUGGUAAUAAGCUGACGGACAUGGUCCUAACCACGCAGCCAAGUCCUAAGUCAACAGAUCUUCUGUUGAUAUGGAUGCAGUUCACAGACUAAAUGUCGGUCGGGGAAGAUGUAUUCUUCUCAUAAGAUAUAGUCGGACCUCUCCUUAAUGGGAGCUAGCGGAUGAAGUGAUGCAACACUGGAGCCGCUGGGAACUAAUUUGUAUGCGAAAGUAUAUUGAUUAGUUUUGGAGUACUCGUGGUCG;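 note: selection with 25 µg/mL kanamycin versus none on LB agar overnight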
Conditions: 30 °C
Each entry below lists one item and its recorded self-splicing fitness (ln) value.
measuredProperty: self-splicing fitness (ln)

INSERT INTO measurements (sequenceinput, measuredproperty, testvalue) VALUES
  ('CAAAAGCAAUAUUACGUUAC', 'self-splicing fitness (ln)', -3.12),
  ('CAUGAGCAAUAUUACGGCGA', 'self-splicing fitness (ln)', -3.34),
  ('AAUCAGCAAUAUUACGGAUA', 'self-splicing fitness (ln)', -0.0268),
  ('CUUUAGCAAUAUUACGGAUG', 'self-splicing fitness (ln)', -0.333),
  ('CUAAAGCAAUAUUACGACGA', 'self-splicing fitness (ln)', -2.38),
  ('ACUUAGCAAUAUUACGGCAA', 'self-splicing fitness (ln)', -0.92),
  ('ACGUAGCAAUAUUACGCCGA', 'self-splicing fitness (ln)', -1.34),
  ('ACCCAGCAAUAUUACGGGUU', 'self-splicing fitness (ln)', -4.18),
  ('GAGUAGCAAUAUUACGUGUU', 'self-splicing fitness (ln)', -3.05),
  ('AAAAAGCAAUAUUACGGUUU', 'self-splicing fitness (ln)', -0.478),
  ('UUGUAGCAAUAUUACGGGAU', 'self-splicing fitness (ln)', -4.01),
  ('GACAAGCAAUAUUACGACUG', 'self-splicing fitness (ln)', -0.381),
  ('GAGUAGCAAUAUUACGUGUC', 'self-splicing fitness (ln)', -1.73),
  ('CUUUAGCAAUAUUACGUAUU', 'self-splicing fitness (ln)', -3.07),
  ('UAGUAGCAAUAUUACGAUUG', 'self-splicing fitness (ln)', -0.0683),
  ('UUACAGCAAUAUUACGCGAU', 'self-splicing fitness (ln)', -2.28),
  ('GUAGAGCAAUAUUACGUAAG', 'self-splicing fitness (ln)', -2.29),
  ('GCUUAGCAAUAUUACGGCGA', 'self-splicing fitness (ln)', -1.75),
  ('AUAAAGCAAUAUUACGUCUU', 'self-splicing fitness (ln)', 0.183),
  ('UUUGAGCAAUAUUACGUUCG', 'self-splicing fitness (ln)', -4.2),
  ('CCUCAGCAAUAUUACGGUCC', 'self-splicing fitness (ln)', -4.07),
  ('GUGUAGCAAUAUUACGCCGU', 'self-splicing fitness (ln)', -1.25),
  ('AUUUAGCAAUAUUACGACAA', 'self-splicing fitness (ln)', -1.36),
  ('GGCUAGCAAUAUUACGAUUU', 'self-splicing fitness (ln)', -0.855),
  ('GAAGAGCAAUAUUACGCCGG', 'self-splicing fitness (ln)', -2.66),
  ('GGUCAGCAAUAUUACGACUU', 'self-splicing fitness (ln)', -0.64),
  ('UCUCAGCAAUAUUACGAUUC', 'self-splicing fitness (ln)', -2.66),
  ('CGGCAGCAAUAUUACGGAUA', 'self-splicing fitness (ln)', -3.38),
  ('CAGUAGCAAUAUUACGUUCG', 'self-splicing fitness (ln)', 0.207),
  ('UGUUAGCAAUAUUACGAAAG', 'self-splicing fitness (ln)', -2.64),
  ('GCCAAGCAAUAUUACGACAC', 'self-splicing fitness (ln)', -0.962),
  ('AACUAGCAAUAUUACGUGGU', 'self-splicing fitness (ln)', -3.36),
  ('ACUGAGCAAUAUUACGGCAA', 'self-splicing fitness (ln)', -2.13),
  ('GCAAAGCAAUAUUACGCUGG', 'self-splicing fitness (ln)', -2.41);

----------
Assay: self-splicing fitness, log relative to wild type (ln ratio); higher = more splicing; Tetrahymena group I intron in knt gene, E. coli kanamycin selection, DiMSum; sequences stand for … in CUCUCU…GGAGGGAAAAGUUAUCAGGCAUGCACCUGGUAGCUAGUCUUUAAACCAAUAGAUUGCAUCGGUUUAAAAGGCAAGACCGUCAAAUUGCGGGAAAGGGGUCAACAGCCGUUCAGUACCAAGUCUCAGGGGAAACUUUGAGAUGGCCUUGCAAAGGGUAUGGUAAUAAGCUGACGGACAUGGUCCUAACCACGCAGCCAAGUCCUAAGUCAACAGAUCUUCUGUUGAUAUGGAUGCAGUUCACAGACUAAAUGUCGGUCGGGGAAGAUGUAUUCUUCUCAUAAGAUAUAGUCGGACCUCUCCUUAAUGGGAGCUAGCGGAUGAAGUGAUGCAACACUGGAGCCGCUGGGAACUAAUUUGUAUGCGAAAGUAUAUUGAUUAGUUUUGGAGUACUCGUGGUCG
Settings: 37 °C
measuredProperty: self-splicing fitness (ln)

INSERT INTO results (sequenceinput, testvalue) VALUES
  ('AGUCAGCAAUAUUACGAACU', 0.15),
  ('GGUUAGCAAUAUUACGUCUU', 0.227),
  ('ACCAAGCAAUAUUACGCGGA', -0.537),
  ('GUAUAGCAAUAUUACGAACC', -0.238),
  ('AGUCAGCAAUAUUACGGAAG', -1.67),
  ('CGAUAGCAAUAUUACGGGAG', -2.39),
  ('CAGUAGCAAUAUUACGUGAC', -2.23),
  ('ACCGAGCAAUAUUACGGAAG', -1.93),
  ('CGGCAGCAAUAUUACGAACG', 0.693),
  ('GAUGAGCAAUAUUACGCACG', -2.25),
  ('AGCGAGCAAUAUUACGCGUU', -2.79),
  ('ACCUAGCAAUAUUACGACCA', 0.323),
  ('CACUAGCAAUAUUACGCGCU', -2.09),
  ('AAUCAGCAAUAUUACGAAAC', -0.858),
  ('AUUGAGCAAUAUUACGGCAC', -0.518),
  ('GCUUAGCAAUAUUACGGUAA', -1.54);

----------
Experiment: self-splicing fitness, log relative to wild type (ln ratio); higher = more splicing; Tetrahymena group I intron in knt gene, E. coli kanamycin selection, DiMSum; sequences stand for … in CUCUCU…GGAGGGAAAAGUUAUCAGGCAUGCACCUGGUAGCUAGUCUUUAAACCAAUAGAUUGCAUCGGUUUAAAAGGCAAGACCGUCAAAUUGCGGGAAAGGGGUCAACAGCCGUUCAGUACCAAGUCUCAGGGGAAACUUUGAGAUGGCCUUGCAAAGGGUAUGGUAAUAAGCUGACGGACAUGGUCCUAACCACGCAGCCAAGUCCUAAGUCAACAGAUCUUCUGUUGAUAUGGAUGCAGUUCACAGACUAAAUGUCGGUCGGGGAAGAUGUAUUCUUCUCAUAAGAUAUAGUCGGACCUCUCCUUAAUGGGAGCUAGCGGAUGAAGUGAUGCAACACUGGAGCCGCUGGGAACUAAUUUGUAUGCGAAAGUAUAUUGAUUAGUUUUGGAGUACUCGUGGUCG
Details: 30 °C
measuredProperty: self-splicing fitness (ln)

INSERT INTO assay_data (sequenceinput, testvalue) VALUES
  ('AGCGAGCAAUAUUACGUCAU', -3.13),
  ('AGAGAGCAAUAUUACGGGGG', -2.78),
  ('UGAGAGCAAUAUUACGCCAC', -2.36),
  ('CCUUAGCAAUAUUACGAUUG', -1.85),
  ('UGUGAGCAAUAUUACGACAU', -3.68),
  ('CGAAAGCAAUAUUACGCGCG', -2.64),
  ('ACGAAGCAAUAUUACGCUUA', -1.81),
  ('CAUGAGCAAUAUUACGACGG', -0.356),
  ('UCCCAGCAAUAUUACGAGUC', -3.66),
  ('CCAUAGCAAUAUUACGUUGA', -3.57),
  ('GGGAAGCAAUAUUACGUAAA', -1.53),
  ('AUCUAGCAAUAUUACGACUC', -0.0532),
  ('CAGCAGCAAUAUUACGUACU', -2.54),
  ('GCCGAGCAAUAUUACGAUAA', -2.07),
  ('CACCAGCAAUAUUACGACUU', -3.4),
  ('GGGUAGCAAUAUUACGGACG', -1.74);
